biological target: UniProt:P48039; assay: Displacement of [3H]melatonin from human MT1 receptor expressed in CHO cells after 60 mins by microbeta scintillation method; format: cell-based
Sequence (P48039 whole entry): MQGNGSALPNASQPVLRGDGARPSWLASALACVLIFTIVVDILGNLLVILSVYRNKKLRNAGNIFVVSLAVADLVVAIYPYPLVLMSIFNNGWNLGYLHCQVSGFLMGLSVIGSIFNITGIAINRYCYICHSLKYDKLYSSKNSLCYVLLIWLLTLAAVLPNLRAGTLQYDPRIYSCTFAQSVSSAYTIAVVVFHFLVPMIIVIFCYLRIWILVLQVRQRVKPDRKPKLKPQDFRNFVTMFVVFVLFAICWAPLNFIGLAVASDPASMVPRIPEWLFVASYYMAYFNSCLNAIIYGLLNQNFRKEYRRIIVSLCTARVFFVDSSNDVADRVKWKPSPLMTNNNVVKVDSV
readoutKind: Ki (nM)

{"columns": ["inputSmiles", "studyTarget", "Ki / nM"],
 "data": [
  ["CCC(=O)NCCCc1cc(OC)ccc1-c1cccc(OC)c1", "UniProt:P48039", 32.7]
]}

a. CCC(=O)NCCCc1cc(OC)ccc1C#Cc1cccc(OC)c1
b. CCC(=O)NCCCc1cc(OC)ccc1CCc1cccc(OC)c1
Input: Please indicate which item has the smaller measured Ki: a versus b Output the label that corresponds to your choice.
Output: b
(b: 22.2 nM, a: 38.2 nM)
